// TGI lookup, one value per entry
Tested on: HT29 colon
Measurement description: NCI tumour cell line growth inhibition, 48 h
# unit: µM | format: bare number

// worked examples, TGI included
> print(dat)
                                   molecule  target.desc  assay.result
1  COC(=O)c1cc([N+](=O)[O-])cc([N+](=O)[O-])c1Cl   HT29 colon          3.49
2  Cc1ccc(/N=N/C(=NNC(=O)c2ccc(C)cc2)c2ccc(N(C)C)cc2)cc1   HT29 colon          91.3

// returns reported TGI for input "COc1cc(-c2ncn(/C=C\c3nnco3)n2)cc(C(F)(F)F)c1"
50.8

// returns reported TGI for input CC(=O)OCC(CC[CH2][Sn]([Cl])([Cl])[c]1ccccc1)OC(C)=O (centres undefined)
94.9

// returns reported TGI for input N#Cc1c(-c2ccccc2)cc(-c2ccccc2)n(C2OCC(O)C(O)C2O)c1=S (centres undefined)
80

* * *

Test system: SW-620 colon
Measurement description: NCI tumour cell line growth inhibition, 48 h
// TGI lookup, one value per entry

> print(dat)
                             molecule  metric  assay.result
1  Clc1ccc([I+]c2ccc(Cl)cc2Cl)c(Cl)c1     TGI       3.75 µM

Reported TGI for SW-620 colon, given CCc1ccccc1NC(=O)CC1NC(=O)CS1 (stereo unspecified) ?
> 100 µM

Reported TGI for SW-620 colon, given O=C(N/N=C(\C1=Nc2ccc(Cl)cc2NC1O)C(O)/C=C/c1ccccc1)c1ccncc1 (stereo unspecified) ?
> 100 µM

Reported TGI for SW-620 colon, given OC1COC(OCc2ccccc2)C(O)C1O (stereo unspecified) ?
> 100 µM

Reported TGI for SW-620 colon, given "O=C(c1ccco1)c1c(C(F)(F)F)n([O-])c2cc(F)c(F)cc2[n+]1=O" ?
0.0132 µM

Reported TGI for SW-620 colon, given "COc1ccc(NC/C=C/C(=C/COC(C)=O)OC(C)=O)cc1" ?
3.49 µM

Reported TGI for SW-620 colon, given O=c1ccn(/C=C/C(O)C(O)CO)c(=O)[nH]1 (stereo unspecified) ?
> 100 µM

Reported TGI for SW-620 colon, given CC(C)N(C(=O)C12C3C4C1C1C2C3C41C(=O)N(C(C)C)C(C)C)C(C)C (stereo unspecified) ?
> 50 µM

Reported TGI for SW-620 colon, given NC(CCCCNCc1ccccc1O)C(=O)O (stereo unspecified) ?
> 100 µM

Reported TGI for SW-620 colon, given CC(C)OC(=O)C1Cc2c([nH]c3ccccc23)C(c2ccccc2)N1 (stereo unspecified) ?
> 100 µM

Reported TGI for SW-620 colon, given "COC(=O)c1cc([N+](=O)[O-])cc([N+](=O)[O-])c1Cl" ?
3.52 µM

* * *

// TGI lookup, one value per entry
Tested on: 786-0 renal
Measurement description: NCI tumour cell line growth inhibition, 48 h
# unit: µM | format: bare number

Reported TGI for 786-0 renal, given "COC(=O)c1cc([N+](=O)[O-])cc([N+](=O)[O-])c1Cl" ?
3.22

Reported TGI for 786-0 renal, given Cc1nnc(N/N=C(/C(=O)C(C#N)c2ccc(Cl)cc2)C(C#N)c2ccc(Cl)cc2)n1N (stereo not given) ?
31.5

* * *

Tested on: KM12 colon
Measurement description: NCI tumour cell line growth inhibition, 48 h; in the data active = GI50 below about 0.43 µM; inactive = the rest
Log the outcome using a class from active, inactive

Here are 2 molecules together with their reported answers.
Molecule	Discrete label
CCN(Cc1ccc(F)cc1)c1ccc(CO)c(C(F)(F)F)c1	inactive
COC1=C(OC)[C@]2(OC)c3c(O)c(OC)c4c(c3O[C@@]23O[C@@H](c2ccccc2)CC=C3C1=O)[C@@H](OC)C[C@H](c1ccccc1)O4	inactive

Please share the test call associated with C=CCN(CC=C)C(=O)[C@H](CC)[C@@H]1CC[C@@H](C)[C@@H]([C@H](C)[C@@H](O)[C@@H](C)C(=O)[C@H](CC)C2O[C@]3(C=C[C@@H](O)[C@]4(CC[C@@](C)([C@H]5CC[C@](O)(CC)[C@H](C)O5)O4)O3)[C@H](C)C[C@@H]2C)O1 (some centres not stated) .
inactive

Please share the test call associated with CC1SC(c2ccc(Cl)cc2)N(CCc2cccs2)C1=O (configuration not stated) .
inactive

Please share the test call associated with "C[C@@H](NC(=O)c1ccc(F)cc1)c1ccc2c(c1)CCN2C(=O)C1CCOCC1" .
inactive

Please share the test call associated with "Clc1ccc([I+]c2ccc(Cl)cc2Cl)c(Cl)c1" .
inactive

Please share the test call associated with "COc1cc(-c2ncn(/C=C\c3nnco3)n2)cc(C(F)(F)F)c1" .
inactive

* * *

// TGI lookup, one value per entry
System: SF-295 CNS
Measurement description: NCI tumour cell line growth inhibition, 48 h

// worked examples, TGI included
> print(dat)
                                   compound  metric  assay.result
1  O=S(=O)(O)c1ccc2cc3nn(-c4ccc(/C=C/c5ccc(-n6nc7cc8ccc(S(=O)(=O)O)cc8cc7n6)cc5S(=O)(=O)O)c(S(=O)(=O)O)c4)nc3cc2c1     TGI      > 100 µM
2  O=C1c2ccccc2C(=O)c2c1cc1c(c2[N+](=O)[O-])OCO1     TGI       8.82 µM

// returns reported TGI for input C=C(CCC=C(C)C)C1CC=C(C)CC1 (stereo not given)
45 µM

// returns reported TGI for input "CC(=O)N(O)c1ccc(/C=C/c2ccccc2)cc1"
2.78 µM

// returns reported TGI for input "c1ccc2c(-c3csc(-c4c[nH]c5ccccc45)n3)c[nH]c2c1"
> 89.1 µM

// returns reported TGI for input O=C(N/N=C(\C1=Nc2ccc(Cl)cc2NC1O)C(O)/C=C/c1ccccc1)c1ccncc1 (stereo not given)
> 100 µM

* * *

// TGI lookup, one value per entry
Tested on: SNB-19 CNS
Measurement description: NCI tumour cell line growth inhibition, 48 h
# unit: µM | format: bare number

> print(dat)
                                   compound  assay.result
1  O=C1C(Sc2ccc3ccccc3c2)=C(Sc2ccc3ccccc3c2)C(=O)c2ccccc21          20.3
2  CC(C)=CCC/C(C)=C/CCC1(C)C=Cc2c(c3ccccc3oc2=O)O1 (stereo not drawn)          37.7
3  CC1CCC2(C)C(CC=C(C=O)C2(O)C=O)C12CO2 (stereo not drawn)          22.5
4  COc1ccc(NC/C=C/C(=C/COC(C)=O)OC(C)=O)cc1          9.29

// returns reported TGI for input "O=C1/C(=C/c2ccccc2[N+](=O)[O-])COc2ccc(O)cc21"
16.6

// returns reported TGI for input C=C1C=CC2(Br)OC3CC(C)(Cl)C(Br)CC13C2(C)C (stereo not drawn)
88.3

// returns reported TGI for input "c1ccc(C2CCCCC2)c(OCCCCCN2CCNCC2)c1"
14.4

// returns reported TGI for input "O=C(NCCCCCCCN1CCCCCCC1)C(C1CCCCC1)C1CCCCC1"
27.9

// returns reported TGI for input "O=C1c2ccccc2C(=O)c2c1cc1c(c2[N+](=O)[O-])OCO1"
14.4

// returns reported TGI for input "O=[N+]([O-])c1cc(Cc2cc([N+](=O)[O-])c3cccnc3c2O)c(O)c2ncccc12"
51.2

* * *

Test system: BT-549 breast
Measurement description: NCI tumour cell line growth inhibition, 48 h; in the data active = GI50 below about 0.43 µM; inactive = the rest
Log the outcome using a class from label 1 for active, label 0 for inactive

Here are 3 compounds together with their reported answers.
Compound	Discrete label
[Cl][Cu][Cl]	label 0
COc1cc(-c2ncn(/C=C\c3nnco3)n2)cc(C(F)(F)F)c1	label 1
O=S(=O)(NCCCNc1cc(-c2cn(-c3ccccc3)nc2-c2cccc(O)c2)ccn1)c1ccc(F)cc1	label 0

Please share the test call associated with "CC1CCN(CCOc2ccc(CNc3ccc4nc(CCC5CCCCC5)[nH]c4c3)cc2)CC1" .
label 0

Please share the test call associated with "Nc1nc2ccccc2c2c1S(=O)(=O)c1ccc(Cl)cc1C2=O" .
label 0

Please share the test call associated with C=CCN(CC=C)C(=O)[C@H](CC)[C@@H]1CC[C@@H](C)[C@@H]([C@H](C)[C@@H](O)[C@@H](C)C(=O)[C@H](CC)C2O[C@]3(C=C[C@@H](O)[C@]4(CC[C@@](C)([C@H]5CC[C@](O)(CC)[C@H](C)O5)O4)O3)[C@H](C)C[C@@H]2C)O1 (stereo partly drawn) .
label 0

Please share the test call associated with CC(C)(C)c1cc(C(=O)O)c2c(c1)C(=O)OC2(c1ccccc1)c1ccccc1C(=O)O (stereo not drawn) .
label 0

Please share the test call associated with "C=C1C(=O)O[C@H]2[C@H]1CC/C(COC(=O)NCc1c[nH]c3ccc(F)cc13)=C\CC[C@@]1(C)O[C@@H]21" .
label 0
